- Test system: DU-145 prostate
- Procedure Text: NCI-60 one-dose screen, 48 h
- Condition Summary: 10 µM unless noted
The panel holds about 83,000 compounds, 20% with a hit somewhere; the sample as a whole holds those more often. Calls of active or inactive are those of the source. How the source made its calls: active means growth percent below 10; inactive means the rest.
Your response should consist of one outcome taken from active, inactive

| Molecule | Group Label |
| --- | --- |
| COc1cc2c(cc1OC(C)=O)C(=O)CCCC2 | inactive |
| CNC(=O)c1cc(Oc2cccc3nc(NC(=O)Nc4cc(C(F)(F)F)cc(C(F)(F)F)c4)ccc23)ccn1 | inactive |
| O=C(CSc1nccc(Nc2ccc(S(=O)(=O)Nc3ccccn3)cc2)n1)c1ccc(Cl)cc1 | inactive |
| O=C(N/N=C/c1c(Cl)cccc1Cl)c1cccc(Nc2ccnc(C(F)(F)F)c2)c1 | inactive |
| C[C@H]1[C@H](C)CC[C@]2(COC(=O)CCC(=O)O)CC[C@]3(C)C(=CC[C@@H]4[C@@]5(C)CCCNC(C)(C)[C@@H]5CC[C@]43C)[C@H]12 | inactive |
| CCOC(=O)C(C(C)=O)c1nc2sc3cc(Cl)c(Cl)cc3n2c(=O)c1C#N (centres undefined) | inactive |
| O=[N+]([O-])c1cc([N+](=O)[O-])c(NN=C(c2ccc(O)cc2)c2ccc(O)cc2)cc1Cl | active |
| N#CCCc1c[nH]c2ccccc12 | inactive |

Prompt: Fill in: this test's call for O=C(N=c1n(-c2ccccc2)nc2n1CCN2C1=NCCN1C(=O)c1ccc(Cl)cc1)c1ccc(Cl)cc1 is ___
Completion: inactive

Prompt: Fill in: this test's call for Cc1nn(-c2ccccc2)c(N2CCOCC2)c1-c1nc2ccc([N+](=O)[O-])cc2[nH]1 is ___
Completion: inactive

Prompt: Fill in: this test's call for Fc1cc2[nH]ncc2c2c3c(c(-c4cn[nH]c4C(F)(F)F)nc12)C1CCC3C1 (centres undefined) is ___
Completion: active

Prompt: Fill in: this test's call for CC(C)CCSC1=CC(=O)c2ccccc2C1=O is ___
Completion: inactive

Prompt: Fill in: this test's call for N#Cc1c(Cl)nc(SCC2CO2)nc1-c1ccccc1 (centres undefined) is ___
Completion: inactive

Prompt: Fill in: this test's call for Oc1c(CNCCNCc2cc(Cl)cc(Cc3ccccc3)c2O)cc(Cl)cc1Cc1ccccc1 is ___
Completion: inactive

Prompt: Fill in: this test's call for O=C(Nc1ccc(Nc2ccncc2)cc1)c1ccc([N+](=O)[O-])cc1 is ___
Completion: inactive
